# Target Or Test System: BACE2 (Homo sapiens, UniProt Q9Y5Z0)
# Sequence (Q9Y5Z0 21-473 limits assumed): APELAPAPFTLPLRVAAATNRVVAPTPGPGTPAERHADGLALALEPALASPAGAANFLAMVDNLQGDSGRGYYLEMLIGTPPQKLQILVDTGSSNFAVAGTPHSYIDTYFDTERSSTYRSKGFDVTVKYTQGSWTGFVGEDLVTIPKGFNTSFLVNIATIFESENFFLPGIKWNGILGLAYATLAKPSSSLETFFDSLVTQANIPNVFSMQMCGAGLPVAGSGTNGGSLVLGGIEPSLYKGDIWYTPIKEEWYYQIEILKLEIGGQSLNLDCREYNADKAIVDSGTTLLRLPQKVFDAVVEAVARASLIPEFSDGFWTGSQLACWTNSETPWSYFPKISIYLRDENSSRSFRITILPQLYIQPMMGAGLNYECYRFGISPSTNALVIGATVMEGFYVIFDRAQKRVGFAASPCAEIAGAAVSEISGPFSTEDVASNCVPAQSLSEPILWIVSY
Recorded Endpoint: pIC50
// scale note: pIC50 = -log10(conc_M); give the bare number

Some solved entries appear below for comparison.
| Chem Smiles | Target Or Test System | pIC50 |
| --- | --- | --- |
| CN1C(=O)C(C)(C)[C@@](C)(c2cc(NC(=O)c3ccn(C(F)F)n3)ccc2F)N=C1N | BACE2 (Homo sapiens, UniProt Q9Y5Z0) | 7.77 |
| CN1C(=O)C[C@@](C)(c2cccc(NC(=O)c3cccc(Cl)n3)c2)N=C1N | BACE2 (Homo sapiens, UniProt Q9Y5Z0) | 7.52 |
| CN1C(=O)C(C)(C)[C@@](C)(c2cccc(NC(=O)c3ncccc3-c3ccccc3Cl)c2)N=C1N | BACE2 (Homo sapiens, UniProt Q9Y5Z0) | 6.74 |

Specify reported pIC50 for the molecule shown: `CN1C(=O)C[C@@](C)(c2cccc(NC(=O)c3coc(-c4ccccc4)n3)c2)N=C1N`
5.88

Return reported pIC50. Input molecule: `CN1C(=O)C[C@@](C)(c2cccc(NC(=O)c3ccccc3)c2)N=C1N`
6.70

Return value of pIC50 for input `CN1C(=O)C(C)(C)[C@@](C)(c2cc(NC(=O)c3ccn(C)n3)ccc2F)N=C1N` , no commentary.
7.46

Return pIC50 for the following molecule: `Cc1cc(Cl)cnc1C(=O)Nc1cccc([C@@]2(C)N=C(N)N(C)C(=O)C2(C)C)c1`
7.72

Report pIC50 for `CN1C(=O)C[C@@](C)(c2cccc(NC(=O)c3ccc(F)cn3)c2)N=C1N`
7.74

Give the reported value of pIC50 for this record: `CN1C(=O)C[C@@](C)(c2cccc(NC(=O)c3ccc(Cl)cc3)c2)N=C1N`
7.30

###

# Target Or Test System: UniProt Q9Y5Z0
# Sequence (Q9Y5Z0 21-473 limits assumed): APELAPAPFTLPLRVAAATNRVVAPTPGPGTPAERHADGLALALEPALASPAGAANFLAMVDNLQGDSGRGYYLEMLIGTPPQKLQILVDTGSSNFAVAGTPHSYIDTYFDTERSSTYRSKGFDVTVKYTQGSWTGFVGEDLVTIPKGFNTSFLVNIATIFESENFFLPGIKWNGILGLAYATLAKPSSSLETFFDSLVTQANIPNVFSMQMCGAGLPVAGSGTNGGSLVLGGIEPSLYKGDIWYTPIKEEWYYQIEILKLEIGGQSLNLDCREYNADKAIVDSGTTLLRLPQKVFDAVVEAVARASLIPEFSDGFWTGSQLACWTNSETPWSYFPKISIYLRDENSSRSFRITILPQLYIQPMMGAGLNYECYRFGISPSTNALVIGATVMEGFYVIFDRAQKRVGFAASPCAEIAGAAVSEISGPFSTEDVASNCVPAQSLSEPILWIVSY
Below, each entry is listed alongside its reported IC50.
Use nM as the unit, but write only the number.

| Molecule | Reading Unit | IC50 |
| --- | --- | --- |
| Cc1cc(Cl)cnc1C(=O)Nc1cccc([C@]2(C)CC(=O)N(C)C(N)=N2)c1 [Example 75] | nM | 17 |
| CN1C(=O)C[C@@](C)(c2cccc(NC(=O)c3cc4ccccc4cn3)c2)N=C1N [Example 57] | nM | 110 |

Could you now consider this next molecule?
Entry CN1C(=O)C[C@@](C)(c2cccc(NC(=O)c3nccc4ccsc34)c2)N=C1N [Example 60] needs its IC50 filled in; supply it.
240
